# System: K562
# assay explanation: Cytotoxicity against human K562 cells after 48 hrs by modified MTT assay
# Assay type: functional, cell-based
# measurement parameters: K562, 48 h
value kind: IC50 (µM)
Give bare numbers, in µM.

Identify the reported IC50 for the following entry. CCN(CC)CCCNc1nc2c(Nc3cccc(Cl)c3)c3ccccc3nc2s1 7.82
